target: wt MPER peptide (HIV-1)
measurementLabel: koff (s⁻¹)

{"binder": "2F5 variant r4W (antibody, V domains shown) VH: RITLKESGPPLVKPTQTLTLTCSFSGFSLSDFGVGVGWIRQPPGKALEWLAIIYSDDDKRYSPSLNTRLTITKDTSKNQVVLVMTRVSPVDTATYFCAHRRGPLFGWARGPVNAMDVWGQGITVTISS VL: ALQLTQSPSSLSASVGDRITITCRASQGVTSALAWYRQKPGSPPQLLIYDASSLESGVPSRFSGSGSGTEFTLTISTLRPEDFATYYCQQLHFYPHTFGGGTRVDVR", "measuredResult": 0.00681}
{"binder": "2F5 variant r2W (antibody, V domains shown) VH: RITLKESGPPLVKPTQTLTLTCSFSGFSLSDFGVGVGWIRQPPGKALEWLAIIYSDDDKRYSPSLNTRLTITKDTSKNQVVLVMTRVSPVDTATYFCAHRRGPTLFGWIARGPVNAMDVWGQGITVTISS VL: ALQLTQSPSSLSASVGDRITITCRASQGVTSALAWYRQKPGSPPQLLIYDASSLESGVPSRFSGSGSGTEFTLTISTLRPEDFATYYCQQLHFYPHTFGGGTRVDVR", "measuredResult": 0.00435}
{"binder": "2F5 variant r4W2b (antibody, V domains shown) VH: RITLKESGPPLVKPTQTLTLTCSFSGFSLSDFGVGVGWIRQPPGKALEWLAIIYSDDDKRYSPSLNTRLTITKDTSKNQVVLVMTRVSPVDTATYFCAHRRGPLFWWARGPVNAMDVWGQGITVTISS VL: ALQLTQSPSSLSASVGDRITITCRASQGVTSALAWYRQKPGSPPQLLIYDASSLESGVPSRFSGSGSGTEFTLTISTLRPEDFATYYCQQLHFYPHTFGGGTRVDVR", "measuredResult": 0.0034}
